# System: mouse
# ASSAY TEXT: Oral bioavailability: in vivo orally active (audiogenic mouse test and/or MES test)
# Protocol: The oral bioavailability was tested using the audiogenic mouse test (Audiogenic seizures, R. L. Collins; Chapter 14, pages: 347-372. In: Experimental Models of Epilepsy; By: Pupura, Penry, Tower, Woodbury, Walter, Raven Press, New York, 1972. Standard Book Number: 0-911216-26-X) and/or the MES test.
PARAMETER: In vivo orally active

> print(dat)
                                    compound  target.entity  result
 1  CCOC(CC)c1cc2c(=O)n(NS(C)(=O)=O)c(=O)[nH]c2cc1C(F)(F)F (stereo not shown)          mouse     Yes
 2  CC(C)n1nccc1-c1cc2c(=O)n(NS(C)(=O)=O)c(=O)[nH]c2cc1C(F)(F)F          mouse     Yes
 3  CCCOC(CC)c1cc2c(=O)n(NS(C)(=O)=O)c(=O)[nH]c2cc1C(F)(F)F (stereo not shown)          mouse     Yes
 4  Cn1nccc1-c1cc2c(=O)n(NS(C)(=O)=O)c(=O)[nH]c2cc1C(F)F          mouse     Yes
 5  CC(C)c1cc2[nH]c(=O)n(NS(C)(=O)=O)c(=O)c2cc1-c1ccnn1C(C)C          mouse     yes
 6  CC(F)c1cc2[nH]c(=O)n(NS(C)(=O)=O)c(=O)c2cc1-c1ccnn1C(C)C (stereo not shown)          mouse     Yes
 7  CCOC(C)c1cc2c(=O)n(NS(C)(=O)=O)c(=O)[nH]c2cc1C(F)(F)F (stereo not shown)          mouse     yes
 8  COCCn1nccc1-c1cc2c(=O)n(NS(C)(=O)=O)c(=O)[nH]c2cc1C(C)C          mouse     yes
 9  CS(=O)(=O)Nn1c(=O)[nH]c2cc(C(F)(F)F)c(-c3ccnn3O)cc2c1=O          mouse     Yes
10  CC(C)OC(C)c1cc2c(=O)n(NS(C)(=O)=O)c(=O)[nH]c2cc1C(F)(F)F (stereo not shown)          mouse     Yes
11  CCc1cc2[nH]c(=O)n(NS(C)(=O)=O)c(=O)c2cc1-c1ccnn1C(C)C          mouse     yes
12  CS(=O)(=O)Nn1c(=O)[nH]c2cc(C(F)(F)F)c(C3CCCO3)cc2c1=O (stereo not shown)          mouse     Yes
13  CCC(O)c1cc2c(=O)n(NS(C)(=O)=O)c(=O)[nH]c2cc1C(F)(F)F (stereo not shown)          mouse     Yes
14  COCCn1nccc1-c1cc2c(=O)n(NS(C)(=O)=O)c(=O)[nH]c2cc1C(F)(F)F          mouse     Yes
15  CC(C)n1nccc1-c1cc2c(=O)n(NS(C)(=O)=O)c(=O)[nH]c2cc1C(F)F          mouse     Yes
16  COC(C)c1cc2c(=O)n(NS(C)(=O)=O)c(=O)[nH]c2cc1C(F)(F)F (stereo not shown)          mouse     Yes
